Target: Polyunsaturated fatty acid lipoxygenase ALOX15 (Homo sapiens, UniProt P16050)
Sequence (P16050 whole entry): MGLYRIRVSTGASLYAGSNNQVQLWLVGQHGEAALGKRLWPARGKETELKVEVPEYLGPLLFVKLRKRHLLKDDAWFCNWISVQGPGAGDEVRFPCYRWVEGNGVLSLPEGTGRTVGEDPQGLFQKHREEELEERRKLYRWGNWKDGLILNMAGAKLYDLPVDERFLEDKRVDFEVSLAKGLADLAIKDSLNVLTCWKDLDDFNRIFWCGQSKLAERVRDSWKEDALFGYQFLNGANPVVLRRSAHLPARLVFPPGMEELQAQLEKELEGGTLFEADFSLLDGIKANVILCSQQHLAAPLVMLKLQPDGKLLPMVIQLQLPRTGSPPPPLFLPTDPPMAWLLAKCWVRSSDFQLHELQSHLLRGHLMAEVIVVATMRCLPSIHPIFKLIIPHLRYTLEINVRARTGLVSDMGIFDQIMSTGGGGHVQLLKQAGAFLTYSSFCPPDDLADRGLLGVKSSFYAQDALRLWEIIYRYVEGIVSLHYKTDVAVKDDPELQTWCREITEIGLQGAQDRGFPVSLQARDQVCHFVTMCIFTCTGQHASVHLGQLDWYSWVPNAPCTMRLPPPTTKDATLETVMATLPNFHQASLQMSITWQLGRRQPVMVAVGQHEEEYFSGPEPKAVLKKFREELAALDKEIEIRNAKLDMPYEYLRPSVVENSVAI
quantity.measured: Ki

1. Cc1ccc(O)c(-c2cc(-c3ccccc3C)[nH]n2)c1    1 µM

Cited source for all entries: BindingDB's records for doi:10.1016/j.bmc.2016.01.042
